The entries below are paired with their reported pKi.
- experimental target: α2β2 nAChR (Rattus norvegicus, UniProt P12389+P12390)
- Construct: expressed in transfected cells
- method description: Competition binding with [3H]epibatidine, membrane homogenates of stably transfected cells
- test context: mean of three to five independent measurements; [3H]epibatidine; read-out: Ki α2β2
In simple prose, pKi is minus the logarithm base ten of a concentration in moles per litre.

{"compound": "CCC(=O)[C@H]1C2CNCC(C2)c2cccc(=O)n21 (single isomer, unassigned; (-)) [(−)-23]", "value type": "pKi", "experimental value": 4.85}
{"compound": "COC(=O)[C@H]1C2CNCC(C2)c2cccc(=O)n21 (single isomer, unassigned; (-)) [(−)-22]", "value type": "pKi", "experimental value": 4.77}
{"compound": "CCCCc1ccc(-c2ccc3n(c2=O)CC2CNCC3C2)cc1 (single isomer, unassigned; (-)) [(−)-21b]", "value type": "pKi", "experimental value": 5.10}
{"compound": "O=c1c(-c2ccc(F)cc2)ccc2n1CC1CNCC2C1 (single isomer, unassigned; (-)) [(−)-21a]", "value type": "pKi", "experimental value": 6.09}

Cc1ccc(-c2ccc3n(c2=O)CC2CNCC3C2)s1 (single isomer, unassigned; (-)) [(−)-21c] yielded pKi of 6.30
